// reported GI50 for each item listed
# System: SF-539
# ASSAY REMARKS: NCI tumour cell line growth inhibition, 48 h
Calls of active or inactive are those of the source. Cut-off read from the data, not from the text of the source: active = GI50 up to about 1.1 µM and inactive = higher.

MOLECULE	GI50
CC1=NOC(=O)C1/N=N/c1ccc(Br)c(C)c1 (configuration not stated)	20.2 µM (inactive)
C[C@H]1[C@H](C)CC[C@]2(C(=O)OC3OC(CO)C(O)C(O)C3O)CC[C@]3(C)C(=CC[C@@H]4[C@@]5(C)C[C@@H](O)[C@@H]6OC(=O)c7cc(O)c(O)c(O)c7-c7c(cc(O)c(O)c7O)C(=O)OC[C@]6(CO)[C@@H]5CC[C@]43C)[C@H]12 (some centres not stated)	> 100 µM (inactive)
O=c1/c(=C/c2ccccc2[N+](=O)[O-])sc2nc3ccccc3n12	19.5 µM (inactive)
CCCCN1C(=O)CS/C1=N/Nc1nc2c([nH]1)c(=O)n(C)c(=O)n2C	37.8 µM (inactive)
CC1C(=O)O[B-]2(c3ccccc3)Oc3ccccc3C=[N+]12 (configuration not stated)	> 100 µM (inactive)
COC(=O)c1ccc2c(c1)CC1(C2)Cc2ccc3c(c2C1)CCC3 (configuration not stated)	47.8 µM (inactive)
Clc1ccc2c(NCCCCN3OC3c3ccccc3)ccnc2c1 (configuration not stated)	1.98 µM (inactive)
